Measured cytotoxicity at 10 µM by item
- Procedure Text: Toxicity liver stage against HepG2, at 10uM
- Format: cell-based
- Design: test concentration 10 uM, cell line HepG2-A16-CD81EGFP
- Condition Info: human, HepG2-A16-CD81EGFP cells; read-out: INHIBITION
For clarity, give the value followed by its unit.

Look over these answered cases.
molecule=O=C(Nc1cnn(COc2ccc(F)cc2Cl)c1)C1CC1 obs_value=-10.6%
molecule=CCCc1nc(C)cc(NCc2ccc(S(N)(=O)=O)cc2)n1 obs_value=10.3%
molecule="CCCc1noc(CCC(=O)N2CCCC2c2ccc(OC)cc2)n1 (stereo unspecified)" obs_value=-0.403%

Alright, here's another molecule for you.
Prompt line: Supply measured cytotoxicity at 10 µM of `O=C(CN1CCCc2c(F)cc(Br)cc21)N1CCCC1` in your reply.
Response line: -1.26%
